# MEASURED_ON: H2A-H2B (Alexa-488 H2B) (human) (UniProt P04908)
# MEASUREMENT_PROTOCOL: fluorescence polarisation
MEASUREMENT_KIND: Kd (nM)
Please give a number only; it is taken to be in nM.

input: Input SMARCAD1 (from UniProt Q9H4L7 1-1026) (enzyme) , output reported Kd.
output: 10

* * *

# MEASURED_ON: H3-H4 (Alexa-488 H4) (human)
# MEASUREMENT_PROTOCOL: fluorescence polarisation
MEASUREMENT_KIND: pKd
API: returns pKd as number; meaning -log10 of concentration in mol/L.

input: Input SMARCAD1 (from UniProt Q9H4L7 1-1026) (enzyme) , output reported pKd.
output: 8.92

* * *

# MEASURED_ON: TLH3 nucleosome (human) (UniProt P04908)
# MEASUREMENT_PROTOCOL: fluorescence polarisation
MEASUREMENT_KIND: pKd
API: returns pKd as number; meaning -log10 of concentration in mol/L.

input: Input SMARCAD1 (from UniProt Q9H4L7 1-1026) (enzyme) , output reported pKd.
output: 6.48
